assay: Plasma stability (37° C., pH 7.4), rat; format: in vitro ADME, Sprague-Dawley rat; conditions: rat plasma, test article 1 μM, 37° C., pH 7.4, 120 min
This listing pairs compounds with measured % Remaining of Initial (n = 1), 120 min.
property.measured: % Remaining of Initial (n = 1), 120 min

compound	value.reported
CC/C=C\C/C=C\C/C=C\C/C=C\C/C=C\CCCC(=O)OCCNC(=O)CCCCCCCCCCCCCCC	83%
CCCCCCCCCCCCCCCC(=O)NCCOC(=O)CCC(=O)OC[C@H]1O[C@@](CO)(O[C@H]2O[C@H](CO)[C@@H](O)[C@H](O)[C@H]2O)[C@@H](O)[C@@H]1O	<1.0%
CCCCC/C=C\C/C=C\CCCCCCCC(=O)OCCNC(=O)CCCCCCCCCCCCCCC	29%
CCCCCCCCCCCCCCCC(=O)NCCOC(=O)CCC	18%
CCCCCCCCCCCCCCCC(=O)NCCOC(=O)CCC(=O)OCC(COC(=O)CCC)OC(=O)CCC (stereo not shown)	<1.0%
CCCCCCCCCCCCCCCC(=O)NCCOC(=O)CCC(=O)OCC(O)CO (stereo not shown)	<1.0%
CCCCCCCCCCCCCCCC(=O)NCCOC(=O)CCC(=O)OCC(COC(=O)CCCCCCC)OC(=O)CCCCCCC (stereo not shown) [Compound I-3, PEA-Succinate-Glycerol-Di-Caprylic]	79%
